# system: rP2X4R T210A mutant (Rattus norvegicus, UniProt P51577, T210A)
# Sequence (P51577 whole entry T210A): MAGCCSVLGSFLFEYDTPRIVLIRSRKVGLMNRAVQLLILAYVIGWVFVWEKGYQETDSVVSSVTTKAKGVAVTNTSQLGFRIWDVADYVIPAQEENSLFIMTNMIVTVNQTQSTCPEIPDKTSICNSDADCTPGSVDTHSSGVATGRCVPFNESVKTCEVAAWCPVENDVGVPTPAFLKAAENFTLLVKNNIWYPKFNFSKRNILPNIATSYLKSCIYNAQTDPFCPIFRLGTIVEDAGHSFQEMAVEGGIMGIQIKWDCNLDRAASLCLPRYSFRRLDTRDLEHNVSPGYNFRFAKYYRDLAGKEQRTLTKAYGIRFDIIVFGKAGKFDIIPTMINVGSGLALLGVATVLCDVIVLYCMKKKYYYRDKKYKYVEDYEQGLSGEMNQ
# assay_explanation: whole-cell patch clamp, HEK293T cells expressing mutant
# assay_conditions: naïve receptors, 2–5 s application
observable: pEC50
Entry type: numeric. Quantity: pEC50, the -log10 of concentration in molar units.

# query: pEC50 of entry Nc1ncnc2c1ncn2[C@@H]1O[C@H](COP(=O)(O)OP(=O)(O)OP(=O)(O)O)[C@@H](O)[C@H]1O 4.59

----------
# system: rP2X4R T211A mutant (Rattus norvegicus, UniProt P51577, T211A)
# Construct: expressed in transfected cells; host or cells: HEK293T
# Sequence (P51577 whole entry T211A): as the sequence (P51577 whole entry T210A) above, with A210T, T211A counted along it
# assay_explanation: whole-cell patch clamp, HEK293T cells expressing mutant
# Type: cell-based
# assay_conditions: naïve receptors, 2–5 s application
observable: pEC50
Entry type: numeric. Quantity: pEC50, the -log10 of concentration in molar units.

# query: pEC50 of entry Nc1ncnc2c1ncn2[C@@H]1O[C@H](COP(=O)(O)OP(=O)(O)OP(=O)(O)O)[C@@H](O)[C@H]1O [ATP] 5.59
